Assay: Solubility Assay
Assay type: physicochemical
Details: aqueous with cosolvent or surfactant or cyclodextrin, kinetic from dmso stock; 20 mM HEPES, 100 mM NaCl, pH 7.5; 18-24 hours at ambient temperature; HPLC; read-out: Solubility
recorded endpoint: solubility

Prompt: Given the entry C=C(NC(=O)C(=C)NC(=O)c1csc(C2=N[C@@H]3c4csc(n4)[C@H]4NC(=O)c5csc(n5)[C@H]([C@](C)(O)[C@@H](C)O)NC(=O)[C@H]5CSC(=N5)/C(=C/C)NC(=O)[C@H]([C@@H](C)O)NC(=O)c5csc(n5)[C@]3(CC2)NC(=O)[C@H](C)NC(=O)C(=C)NC(=O)[C@H](C)NC(=O)[C@H]([C@@H](C)CC)N[C@@H]2C=Cc3c([C@H](C)O)cc(nc3[C@H]2O)C(=O)O[C@@H]4C)n1)C(N)=O [Thiostrepton, reference compound] , report its measured solubility.
Completion: < 100 µM

----------
Test: Solubility Assay
Format: physicochemical
Details: HEPES/NaCl buffer, aqueous with cosolvent or surfactant or cyclodextrin, kinetic from dmso stock; 20 mM HEPES, 100 mM NaCl, pH 7.5; 18-24 hours at ambient temperature; HPLC; read-out: Solubility
Kindly supply the reported solubility values for the records listed here.

In the examples that follow, each entry is paired with its recorded solubility.
C=C(NC(=O)c1ccn(C2CCN(C(=O)OC(C)(C)C)CC2)n1)C(=O)NC(=C)C(=O)OC = > 1000 µM
C=C(NC(=O)c1cn(-c2ccccc2)cn1)C(=O)NC(=C)C(=O)OC = < 100 µM
C=C(NC(=O)c1csc(-c2ccc(NC(=O)CCCCCBr)cc2)n1)C(=O)NC(=C)C(=O)OC [Compound A, reference compound] = < 100 µM

Each molecule below has a recorded value; state its solubility.
1. C=C(NC(=O)c1cn(C2CCN(C(=O)OC(C)(C)C)CC2)nn1)C(=O)NC(=C)C(=O)OC
2. C=C(NC(=O)c1cnn(-c2ccccc2)c1)C(=O)NC(=C)C(=O)OC
3. C=C(NC(=O)OC1CCN(C(=O)OC(C)(C)C)CC1)C(=O)NC(=C)C(=O)OC

Completion:
1: < 100 µM; 2: > 1000 µM; 3: > 1000 µM

----------
Molecular target: purified human PRX3 (Homo sapiens)
Construct: made in house
Sequence (P30048 62-256): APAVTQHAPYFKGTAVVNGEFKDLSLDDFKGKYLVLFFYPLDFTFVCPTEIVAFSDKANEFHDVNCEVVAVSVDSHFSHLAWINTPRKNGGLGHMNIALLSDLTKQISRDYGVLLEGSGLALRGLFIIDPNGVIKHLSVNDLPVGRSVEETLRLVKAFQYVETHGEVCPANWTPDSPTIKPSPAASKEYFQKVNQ
Assay: Biochemical PRX3 Inhibition Assay (crosslink by SDS PAGE + mono-adduct by MALDI-TOF MS)
Settings: incubated 1-2 hr at 37° C., hydrogen peroxide added
recorded endpoint: PRX3 Inhibition (Crosslink + Mono-adduct)

Would you please look over these solved cases?
C=C(NC(=O)C(=C)NC(=O)c1csc(C2=N[C@@H]3c4csc(n4)[C@H]4NC(=O)c5csc(n5)[C@H]([C@](C)(O)[C@@H](C)O)NC(=O)[C@H]5CSC(=N5)/C(=C/C)NC(=O)[C@H]([C@@H](C)O)NC(=O)c5csc(n5)[C@]3(CC2)NC(=O)[C@H](C)NC(=O)C(=C)NC(=O)[C@H](C)NC(=O)[C@H]([C@@H](C)CC)N[C@@H]2C=Cc3c([C@H](C)O)cc(nc3[C@H]2O)C(=O)O[C@@H]4C)n1)C(N)=O [Thiostrepton, reference compound] = ++ (50-90%)
C=C(NC(=O)c1ccn(C2CCN(C(=O)OC(C)(C)C)CC2)n1)C(=O)NC(=C)C(=O)OC = +++ (>90%)
C=C(NC(=O)c1cn(C2CCN(C(=O)OC(C)(C)C)CC2)nn1)C(=O)NC(=C)C(=O)OC = ++ (50-90%)
C=C(NC(=O)OC1CCN(C(=O)OC(C)(C)C)CC1)C(=O)NC(=C)C(=O)OC = ++ (50-90%)
C=C(NC(=O)c1cnn(-c2ccccc2)c1)C(=O)NC(=C)C(=O)OC = ++ (50-90%)

Prompt: # lookup: PRX3 Inhibition (Crosslink + Mono-adduct) of C=C(NC(=O)c1cn(-c2ccccc2)cn1)C(=O)NC(=C)C(=O)OC
Completion: +++ (>90%)
